B1: VAMP4 (parent)
chain: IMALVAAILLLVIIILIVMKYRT

variants of: B1; test: protein stability index of a GFP-peptide fusion (GPS, HEK-293T) (PSI 1-6); higher = more stable; settings: c terminus: native;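 further: lentivirally expressed fusions sorted by FACS into six bins by GFP to DsRed ratio, PSI derived from sequencing read proportions per bin multiplied by bin number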

>  <residue-string>
IMALVAAILSLVIIILIVMKYRT [L10S]

>  <protein stability index>
2.86

$$$$
>  <residue-string>
IMAWVAAILLLVIIILIVMKYRT [L4W]

>  <protein stability index>
3.59

$$$$
>  <residue-string>
IMALVAAILLLVIIICIVMKYRT [L16C]

>  <protein stability index>
3.65

$$$$
>  <residue-string>
IMALVRAILLLVIIILIVMKYRT [A6R]

>  <protein stability index>
2.47

$$$$
>  <residue-string>
FMALVAAILLLVIIILIVMKYRT [I1F]

>  <protein stability index>
3.39

$$$$
>  <residue-string>
IMALVAAMLLLVIIILIVMKYRT [I8M]

>  <protein stability index>
3.69

$$$$
>  <residue-string>
IMALVAAILLLVIIGLIVMKYRT [I15G]

>  <protein stability index>
2.98

$$$$
>  <residue-string>
IMALVAAILLLVIRILIVMKYRT [I14R]

>  <protein stability index>
2.56

$$$$
>  <residue-string>
IMALVAAISLLVIIILIVMKYRT [L9S]

>  <protein stability index>
3.05

$$$$
>  <residue-string>
IMALVAAILLLVIIISIVMKYRT [L16S]

>  <protein stability index>
3.5

$$$$
>  <residue-string>
IMALVAAILQLVIIILIVMKYRT [L10Q]

>  <protein stability index>
2.67

$$$$
>  <residue-string>
IMALVAAILLLVICILIVMKYRT [I14C]

>  <protein stability index>
3.36

$$$$
>  <residue-string>
IMALVAAIYLLVIIILIVMKYRT [L9Y]

>  <protein stability index>
2.12

$$$$
>  <residue-string>
IMALVAAILLLVIIILIVMKYRL [T23L]

>  <protein stability index>
3.06

$$$$
>  <residue-string>
IMALVAAILLLVRIILIVMKYRT [I13R]

>  <protein stability index>
3.08

$$$$
>  <residue-string>
IMLLVAAILLLVIIILIVMKYRT [A3L]

>  <protein stability index>
3.65

$$$$
>  <residue-string>
ILALVAAILLLVIIILIVMKYRT [M2L]

>  <protein stability index>
3.03

$$$$
>  <residue-string>
IMALVAAILLLVIIILKVMKYRT [I17K]

>  <protein stability index>
2.9

$$$$
>  <residue-string>
IMALVAAILLLDIIILIVMKYRT [V12D]

>  <protein stability index>
1.65

$$$$
>  <residue-string>
IMALVAAILLLVIIILIVYKYRT [M19Y]

>  <protein stability index>
3.09

$$$$
>  <residue-string>
IHALVAAILLLVIIILIVMKYRT [M2H]

>  <protein stability index>
2.4

$$$$
>  <residue-string>
IMALVAAILLLVIIFLIVMKYRT [I15F]

>  <protein stability index>
2.79

$$$$
>  <residue-string>
IMALVAAILLLVIIILIVMKYRP [T23P]

>  <protein stability index>
3.28

$$$$
>  <residue-string>
IMALTAAILLLVIIILIVMKYRT [V5T]

>  <protein stability index>
3.31

$$$$
>  <residue-string>
IMALVAAILLLVIIILYVMKYRT [I17Y]

>  <protein stability index>
2.21

$$$$
>  <residue-string>
IMALVAGILLLVIIILIVMKYRT [A7G]

>  <protein stability index>
3.51

$$$$
>  <residue-string>
IMALVAAILLLVIIELIVMKYRT [I15E]

>  <protein stability index>
2.43

$$$$
>  <residue-string>
IMALVAAILLLVIIILIVMKYAT [R22A]

>  <protein stability index>
3.96

$$$$
>  <residue-string>
IMALVAAILLFVIIILIVMKYRT [L11F]

>  <protein stability index>
3.58

$$$$
>  <residue-string>
IMALVPAILLLVIIILIVMKYRT [A6P]

>  <protein stability index>
2.54

$$$$
>  <residue-string>
IMALVAAIQLLVIIILIVMKYRT [L9Q]

>  <protein stability index>
2.29

$$$$
>  <residue-string>
IMANVAAILLLVIIILIVMKYRT [L4N]

>  <protein stability index>
1.79

$$$$
>  <residue-string>
IMALVAAFLLLVIIILIVMKYRT [I8F]

>  <protein stability index>
3.4

$$$$
>  <residue-string>
EMALVAAILLLVIIILIVMKYRT [I1E]

>  <protein stability index>
2.77

$$$$
>  <residue-string>
IMALVAAILLLVKIILIVMKYRT [I13K]

>  <protein stability index>
1.98

$$$$
>  <residue-string>
IMALVAAIFLLVIIILIVMKYRT [L9F]

>  <protein stability index>
3.56

$$$$
